- System: SK-LU-1
- test.method.notes: Cytotoxicity against human SKLU1 cells assessed as growth inhibition at 50 uM after 48 hrs by sulforhodamine B assay relative to control
- Type: functional
Calls of active or inactive are those of the source. No cut-off for these calls is given here.
parameter: growth inhibition (GI)

Sample answers from the record:
C[C@]12CC[C@H](OC(=O)C3CCCC3)CC1=CC[C@@H]1[C@@H]2CC[C@]2(C)C(C(=O)Cn3ccnc3)=CC[C@@H]12 ... inactive
C[C@]12CC[C@H](OC(=O)C3CCC3)CC1=CC[C@@H]1[C@@H]2CC[C@]2(C)C(C(=O)Cn3ccnc3)=CC[C@@H]12 ... inactive
C[C@]12CC[C@H](OC(=O)C3CC3)CC1=CC[C@@H]1[C@@H]2CC[C@]2(C)C(C(=O)Cn3ccnc3)=CC[C@@H]12 ... inactive
C[C@]12CC[C@H](OC(=O)C3CCCCC3)CC1=CC[C@@H]1[C@@H]2CC[C@]2(C)C(C(=O)Cn3ccnc3)=CC[C@@H]12 ... inactive

Now look at this entry.
Query :: // growth inhibition (GI) lookup, key: `C[C@]12CC[C@H](OC(=O)C3CCCCCC3)CC1=CC[C@@H]1[C@@H]2CC[C@]2(C)C(C(=O)Cn3ccnc3)=CC[C@@H]12`
Result :: inactive

----------
- target.desc: 3-oxo-5-alpha-steroid 4-dehydrogenase 2 (Homo sapiens, UniProt P31213)
- Sequence (P31213 whole entry): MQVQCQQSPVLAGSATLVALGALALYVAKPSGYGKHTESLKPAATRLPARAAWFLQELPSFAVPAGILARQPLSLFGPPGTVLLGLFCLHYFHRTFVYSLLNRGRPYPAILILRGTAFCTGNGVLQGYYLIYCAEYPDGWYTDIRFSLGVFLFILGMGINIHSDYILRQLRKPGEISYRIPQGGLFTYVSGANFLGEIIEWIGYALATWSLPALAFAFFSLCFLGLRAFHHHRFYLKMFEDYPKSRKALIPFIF
- test.method.notes: Inhibition of human prostate 5-alpha reductase 2 assessed as decrease in conversion of testosterone to dihydrotestosterone by chromatographic method
- condition.set: read-out: IC50
parameter: IC50 (nM)
Answers are plain numbers, in nM.

C[C@]12CC[C@H](O)CC1=CC[C@@H]1[C@@H]2CC[C@]2(C)C(C(=O)Cn3ccnc3)=CC[C@@H]12 ... 119000
C[C@]12CC[C@H](OC(=O)C3CCC3)CC1=CC[C@@H]1[C@@H]2CC[C@]2(C)C(C(=O)Cn3ccnc3)=CC[C@@H]12 ... 76.4

Query :: Look up IC50 for this compound: `C[C@]12CC[C@H](OC(=O)C3CCCCC3)CC1=CC[C@@H]1[C@@H]2CC[C@]2(C)C(C(=O)Cn3ccnc3)=CC[C@@H]12`
Result :: 29.3

----------
- Test system: Syrian golden hamster
- test.method.notes: Hyperplasia activity in castrated golden hamster assessed as seminal vesicles weight at 2 mg/kg, sc co-administered with testosterone for 6 days (reference value: 200.6 +/- 55 mg)
- Format: functional, Mesocricetus auratus
parameter: Activity
The reply must contain the numeric value and, after it, the unit.

Examples with their reported Activity follow.
CCCCC(=O)O[C@H]1CC[C@@]2(C)C(=CC[C@@H]3[C@@H]2CC[C@]2(C)C(C(=O)Cn4ccnc4)=CC[C@@H]32)C1 ... 198.33 mg
C[C@]12CC[C@H](OC(=O)C3CCC3)CC1=CC[C@@H]1[C@@H]2CC[C@]2(C)C(C(=O)Cn3ccnc3)=CC[C@@H]12 ... 145.2 mg
C[C@]12CC[C@H](OC(=O)C3CC3)CC1=CC[C@@H]1[C@@H]2CC[C@]2(C)C(C(=O)Cn3ccnc3)=CC[C@@H]12 ... 160.9 mg
C[C@]12CC[C@H](OC(=O)C3CCCCCC3)CC1=CC[C@@H]1[C@@H]2CC[C@]2(C)C(C(=O)Cn3ccnc3)=CC[C@@H]12 ... 143.6 mg
CCCC(=O)O[C@H]1CC[C@@]2(C)C(=CC[C@@H]3[C@@H]2CC[C@]2(C)C(C(=O)Cn4ccnc4)=CC[C@@H]32)C1 ... 217.45 mg

Hey, can you go through the list below and give me Activity for every item?
1. CCC(=O)O[C@H]1CC[C@@]2(C)C(=CC[C@@H]3[C@@H]2CC[C@]2(C)C(C(=O)Cn4ccnc4)=CC[C@@H]32)C1
2. C[C@]12CC[C@H](OC(=O)C3CCCC3)CC1=CC[C@@H]1[C@@H]2CC[C@]2(C)C(C(=O)Cn3ccnc3)=CC[C@@H]12
3. CCCCCC(=O)O[C@H]1CC[C@@]2(C)C(=CC[C@@H]3[C@@H]2CC[C@]2(C)C(C(=O)Cn4ccnc4)=CC[C@@H]32)C1

Result ::
1. 231.7 mg
2. 143.7 mg
3. 198.33 mg

Need Activity for each of these compounds.
1. CC(=O)O[C@H]1CC[C@@]2(C)C(=CC[C@@H]3[C@@H]2CC[C@]2(C)C(C(=O)Cn4ccnc4)=CC[C@@H]32)C1
2. C[C@]12CC[C@H](OC(=O)C3CCCCC3)CC1=CC[C@@H]1[C@@H]2CC[C@]2(C)C(C(=O)Cn3ccnc3)=CC[C@@H]12

Result ::
1: 200.5 mg; 2: 143.68 mg

----------
Kindly state pIC50 for each of the entries shown.
- target.desc: 3-oxo-5-alpha-steroid 4-dehydrogenase 2 (Homo sapiens, UniProt P31213)
- test.method.notes: Inhibition of human prostate 5-alpha reductase 2 assessed as decrease in conversion of testosterone to dihydrotestosterone by chromatographic method
- condition.set: read-out: IC50
Answers are plain numbers, as −log10 of the molar value.

Known results for compounds:
C[C@]12CC[C@H](OC(=O)C3CC3)CC1=CC[C@@H]1[C@@H]2CC[C@]2(C)C(C(=O)Cn3ccnc3)=CC[C@@H]12 ... 6.15
CC(=O)O[C@H]1CC[C@@]2(C)C(=CC[C@@H]3[C@@H]2CC[C@]2(C)C(C(=O)Cn4ccnc4)=CC[C@@H]32)C1 ... 3.91

Then this compound:
Query :: # get_value(readout='pIC50', item= `C[C@]12CC[C@H](OC(=O)C3CCCC3)CC1=CC[C@@H]1[C@@H]2CC[C@]2(C)C(C(=O)Cn3ccnc3)=CC[C@@H]12` )
Result :: 7.46

----------
- Test system: MCF7
- test.method.notes: Cytotoxicity against human MCF7 cells assessed as growth inhibition at 50 uM after 48 hrs by sulforhodamine B assay relative to control
- Assay type: functional
- condition.set: MCF7, 48 h, read-out: GI
# binarize inhibition of growth at 50 µM: threshold 30% inclusive, high side y, low side n

Sample answers from the record:
CC(=O)O[C@H]1CC[C@@]2(C)C(=CC[C@@H]3[C@@H]2CC[C@]2(C)C(C(C)=O)=CC[C@@H]32)C1 ... n
CC(=O)O[C@H]1CC[C@@]2(C)C(=CC[C@@H]3[C@@H]2CC[C@]2(C)C(C(=O)Cn4ccnc4)=CC[C@@H]32)C1 ... y
CCCC(=O)O[C@H]1CC[C@@]2(C)C(=CC[C@@H]3[C@@H]2CC[C@]2(C)C(C(=O)Cn4ccnc4)=CC[C@@H]32)C1 ... n

Query :: Quick check: does `CCCCC(=O)O[C@H]1CC[C@@]2(C)C(=CC[C@@H]3[C@@H]2CC[C@]2(C)C(C(=O)Cn4ccnc4)=CC[C@@H]32)C1` have inhibition of growth at 50 µM greater than or equal to 30%?
Result :: y

Query :: In plain terms: is recorded inhibition of growth at 50 µM at least 30% for `C[C@]12CC[C@H](O)CC1=CC[C@@H]1[C@@H]2CC[C@]2(C)C(C(=O)Cn3ccnc3)=CC[C@@H]12` ?
Result :: y

Query :: Form field: inhibition of growth at 50 µM at least 30%? Entry: `CCCCCC(=O)O[C@H]1CC[C@@]2(C)C(=CC[C@@H]3[C@@H]2CC[C@]2(C)C(C(=O)Cn4ccnc4)=CC[C@@H]32)C1`
Result :: n

Query :: # check: inhibition of growth at 50 µM of `CCC(=O)O[C@H]1CC[C@@]2(C)C(=CC[C@@H]3[C@@H]2CC[C@]2(C)C(C(=O)Cn4ccnc4)=CC[C@@H]32)C1` is greater than or equal to 30%
Result :: n

----------
- target.desc: 3-oxo-5-alpha-steroid 4-dehydrogenase 1 (Rattus norvegicus)
- Sequence (P24008 whole entry): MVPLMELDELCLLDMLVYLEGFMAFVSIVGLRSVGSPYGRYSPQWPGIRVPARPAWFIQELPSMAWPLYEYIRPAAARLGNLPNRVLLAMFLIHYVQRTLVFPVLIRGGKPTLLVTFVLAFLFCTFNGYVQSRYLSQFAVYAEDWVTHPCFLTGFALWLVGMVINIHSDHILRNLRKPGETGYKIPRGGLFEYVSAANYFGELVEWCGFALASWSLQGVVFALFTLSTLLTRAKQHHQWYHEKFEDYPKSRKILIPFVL
- test.method.notes: Inhibition of rat liver microsomal 5-alpha reductase 1 assessed as decrease in conversion of testosterone to dihydrotestosterone by chromatographic method
parameter: IC50

Example entries begin here.
CC(=O)O[C@H]1CC[C@@]2(C)C(=CC[C@@H]3[C@@H]2CC[C@]2(C)C(C(C)=O)=CC[C@@H]32)C1 ... Not Active
C[C@]12CC[C@H](OC(=O)C3CCC3)CC1=CC[C@@H]1[C@@H]2CC[C@]2(C)C(C(=O)Cn3ccnc3)=CC[C@@H]12 ... Not Active
CCCCCC(=O)O[C@H]1CC[C@@]2(C)C(=CC[C@@H]3[C@@H]2CC[C@]2(C)C(C(=O)Cn4ccnc4)=CC[C@@H]32)C1 ... Not Active
C[C@]12CC[C@H](OC(=O)C3CCCC3)CC1=CC[C@@H]1[C@@H]2CC[C@]2(C)C(C(=O)Cn3ccnc3)=CC[C@@H]12 ... Not Active
CCC(=O)O[C@H]1CC[C@@]2(C)C(=CC[C@@H]3[C@@H]2CC[C@]2(C)C(C(=O)Cn4ccnc4)=CC[C@@H]32)C1 ... Not Active
C[C@]12CC[C@H](OC(=O)C3CCCCC3)CC1=CC[C@@H]1[C@@H]2CC[C@]2(C)C(C(=O)Cn3ccnc3)=CC[C@@H]12 ... Not Active

Report IC50 for each item below.
1. C[C@]12CC[C@H](OC(=O)C3CC3)CC1=CC[C@@H]1[C@@H]2CC[C@]2(C)C(C(=O)Cn3ccnc3)=CC[C@@H]12
2. CC(=O)O[C@H]1CC[C@@]2(C)C(=CC[C@@H]3[C@@H]2CC[C@]2(C)C(C(=O)Cn4ccnc4)=CC[C@@H]32)C1
3. CCCCC(=O)O[C@H]1CC[C@@]2(C)C(=CC[C@@H]3[C@@H]2CC[C@]2(C)C(C(=O)Cn4ccnc4)=CC[C@@H]32)C1
4. CCCC(=O)O[C@H]1CC[C@@]2(C)C(=CC[C@@H]3[C@@H]2CC[C@]2(C)C(C(=O)Cn4ccnc4)=CC[C@@H]32)C1
5. C[C@]12CC[C@H](O)CC1=CC[C@@H]1[C@@H]2CC[C@]2(C)C(C(=O)Cn3ccnc3)=CC[C@@H]12
6. C[C@]12CC[C@H](OC(=O)C3CCCCCC3)CC1=CC[C@@H]1[C@@H]2CC[C@]2(C)C(C(=O)Cn3ccnc3)=CC[C@@H]12

Result ::
1. Not Active
2. Not Active
3. Not Active
4. Not Active
5. Not Active
6. Not Active
